Assay: Half life in Sprague-Dawley rat at 2 mg/kg, iv measured upto 24 hrs by LC-MS/MS analysis
Format: ADME, organism-based
Conditions: in vivo
METRIC_NAME: half-life (h)

>>> reported("CC(=O)N/N=C/c1c(-c2nc(NCCN3CCCC3)c3ccccc3n2)[nH]c2ccccc12")
12

###

selectivity ratio for assorted molecules
Assay: Selectivity ratio of CC50 for cytotoxicity against confluent mouse 3T3-L1 preadipocytes to EC50 for lipid lowering activity in confluent mouse 3T3-L1 preadipocytes
Type: toxicity
Conditions: confluent 3T3-L1 preadipocytes, read-out: Ratio CC50/EC50
METRIC_NAME: selectivity ratio

>>> reported("O=Cc1c(-c2nc(NCCN3CCCC3)c3ccccc3n2)[nH]c2cc(F)cc(F)c12")
43
>>> reported("CN(C)CCCNc1nc(-c2[nH]c3cccc(F)c3c2C=O)nc2ccccc12")
23
>>> reported("O=Cc1c(-c2nc(NCCN3CCCC3)c3ccccc3n2)[nH]c2cccc(F)c12")
53
>>> reported("CN(C)CCCNc1nc(-c2[nH]c3ccccc3c2C=O)nc2ccccc12")
67
>>> reported("CC(=O)N/N=C/c1c(-c2nc(NCCN3CCCC3)c3ccccc3n2)[nH]c2ccccc12")
572
